The reported measurements were obtained from the supplement of paper PMC10567573.

B1: S100A14 (parent)
chain: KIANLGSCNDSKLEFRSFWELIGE

variants of: B1; test: protein stability index of a GFP-peptide fusion (GPS, HEK-293T) (PSI 1-6); higher = more stable; details: c terminus: a fixed tail appended;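 note: lentivirally expressed fusions sorted by FACS into six bins by GFP to DsRed ratio, PSI derived from sequencing read proportions per bin multiplied by bin number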
Answer each item with its documented protein stability index.
Number only, please.

input: Entry under review: G6D . Reported protein stability index?
output: 1.61

input: G23D ?
output: 1.75

input: // query: C8A
output: 1.77

input: Now the variant E20G
output: 1.4

input: For N4L then?
output: 1.67

input: What about this variant? G23F
output: 1.44

input: Param item: I22R
output: 1.98

input: # repeat for N4C
output: 1.75

input: Next record, please: L21P
output: 2.59

input: Entry W19K please
output: 2.11

input: Repeat for the following variant: E20N
output: 2.29

input: Query R16D next
output: 2.11

input: Another variant to look at: W19D
output: 3.58

input: Moving on to W19A
output: 1.89

input: How about this variant: L21Y
output: 2.23

input: Also L5P , if possible.
output: 2.08

input: And for L13K ?
output: 2.04

input: Moving on to S11F
output: 2.39

input: Next entry: N9W
output: 1.83

input: Repeat for the following variant: K1F
output: 2.99

input: Input F18W
output: 2.16

input: Cool, now L21Q
output: 1.76

input: Then what about the variant S17F ?
output: 2.52

input: Same thing, different variant: F15C
output: 1.75

input: Continue with R16Y
output: 2.44

input: Follow-up entry: N9S
output: 1.08

input: Also need E24D , thanks.
output: 2.15

input: Input C8R
output: 2.07

input: Param item: S17K
output: 2.2

input: // same read-out, input: S17H
output: 1.46

input: Proceed to D10R
output: 1.74

input: Next entry: N9Q
output: 1.77

input: What do you get for A3F ?
output: 3.12

input: Let us now turn to I22N
output: 2.61

input: Same lookup for N9E , please.
output: 2.19

input: Then what about the variant L21G ?
output: 2.33

input: Lookup L13G
output: 2.18

input: Thanks! And F18K ?
output: 2.07

input: Now consider E24M .
output: 2.27

input: Param item: C8Q
output: 1.68

input: Then this variant: L5A
output: 1.89

input: Same thing, different variant: L13P
output: 2.5

input: Please answer likewise for S7M
output: 1.62

input: Entry to check: E14G
output: 1.57

input: Similarly, C8I ?
output: 3.2

input: Now consider F18S and answer again.
output: 2.08
